system: RCC4/VHL cells; test: XTT assay, RCC4/VHL versus RCC4 cells (selectivity ratio); assay type: cell-based; conditions: Table 1; selectivity ratio, IC50 in RCC4/VHL cells/IC50 in RCC4 cells
Ratio by entry:

>  <mol_smiles>
Cc1cccc(Nc2nc(-c3ccncc3)c(C(N)=O)s2)c1

>  <Ratio>
>2.0

$$$$
>  <mol_smiles>
Cc1cc(C)cc(Nc2nc(-c3ccncc3)cs2)c1

>  <Ratio>
>9

$$$$

Complete the entry with Ratio for OCc1sc(Nc2ccccc2)nc1-c1ccncc1
>1.3

----------
measured_parameter: melting point

Reference set, count: 2
>  <mol_smiles>
FC(F)(F)c1cccc(Nc2nc(-c3ccncc3)cs2)c1

>  <melting point>
239 to 241 °C

$$$$
>  <mol_smiles>
Cc1cccc(Nc2nc(-c3ccncc3)c(C(=O)NCCCN3CCOCC3)s2)c1

>  <melting point>
190 to 192 °C

$$$$

Complete the entry with melting point for CCOC(=O)c1sc(Nc2cccc(C)c2)nc1-c1ccncc1
233 to 235 °C

Complete the entry with melting point for Cc1cccc(Nc2nc(-c3ccncc3N)cs2)c1
159 to 161 °C
